- test-target: Furin (Homo sapiens, UniProt P09958)
- Sequence (P09958 whole entry): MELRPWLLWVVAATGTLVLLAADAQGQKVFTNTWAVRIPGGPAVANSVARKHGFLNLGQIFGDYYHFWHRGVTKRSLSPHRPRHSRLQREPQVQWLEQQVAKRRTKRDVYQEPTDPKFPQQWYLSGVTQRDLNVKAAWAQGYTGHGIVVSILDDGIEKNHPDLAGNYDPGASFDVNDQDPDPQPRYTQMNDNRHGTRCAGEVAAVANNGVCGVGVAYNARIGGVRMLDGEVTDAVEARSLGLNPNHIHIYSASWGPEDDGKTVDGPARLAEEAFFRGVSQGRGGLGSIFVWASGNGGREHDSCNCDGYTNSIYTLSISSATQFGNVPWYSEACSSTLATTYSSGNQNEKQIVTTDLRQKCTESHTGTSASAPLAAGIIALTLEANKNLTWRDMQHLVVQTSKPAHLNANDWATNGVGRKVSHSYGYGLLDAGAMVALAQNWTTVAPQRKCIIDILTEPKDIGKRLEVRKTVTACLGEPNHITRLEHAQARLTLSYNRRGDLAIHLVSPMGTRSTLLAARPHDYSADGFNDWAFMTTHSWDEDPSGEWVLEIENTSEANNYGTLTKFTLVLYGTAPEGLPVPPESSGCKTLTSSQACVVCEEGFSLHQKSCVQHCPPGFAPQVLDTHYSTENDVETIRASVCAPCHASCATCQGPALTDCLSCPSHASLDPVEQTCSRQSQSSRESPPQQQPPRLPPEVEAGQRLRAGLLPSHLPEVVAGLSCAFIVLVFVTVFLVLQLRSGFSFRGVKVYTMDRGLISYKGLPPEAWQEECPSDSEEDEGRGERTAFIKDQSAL
- protocol: Inhibition of human furin using Pyr-RTKR-AMC as substrate preincubated for 30 mins followed by substrate addition and measured by fluorescence based assay
Define the label as fulfilled when Ki is strictly less than 9 nM and as not fulfilled in all remaining cases.

{"given-smiles": "CC(=O)N[C@@H](CCCNC(=N)N)C(=O)N[C@H](C(=O)N[C@@H](Cc1ccc(N=C(N)N)cc1)C(=O)NCc1ccc(/C(N)=N/O)cc1)C(C)C", "category": "not fulfilled"}

# TODO verify Ki < 9 nM strictly for this molecule: `CC(C)[C@H](NS(=O)(=O)Cc1ccc(C(=N)N)cc1)C(=O)N[C@@H](CCCNC(=N)N)C(=O)NCc1ccc(C(=N)N)cc1`
not fulfilled

# TODO verify Ki < 9 nM strictly for this molecule: `CC(=O)N[C@@H](CCCNC(=N)N)C(=O)N[C@H](C(=O)N[C@@H](Cc1ccc(N=C(N)N)cc1)C(=O)NCc1ccc(C(=N)N)c(F)c1)C(C)C`
fulfilled

# TODO verify Ki < 9 nM strictly for this molecule: `CC(=O)N[C@@H](CCCNC(=N)N)C(=O)N[C@H](C(=O)N[C@@H](Cc1ccc(N=C(N)N)cc1)C(=O)NCc1ccc(C(=N)N)cc1)C(C)C`
fulfilled

====

- Tested on: Mus musculus
- protocol: Antifibrotic activity against bleomycin-induced mouse lung fibrosis model assessed as inhibition of hydroxyproline content in lung at 10 mg/kg, po administered once daily
- Assay type: functional
Decision: inhibition in vivo at 10 mg/kg compared against 50%; not below it gives True, below it gives False.

{"compound": "CN1CCN(c2cnc(Oc3cc(CN4CCC(CC(=O)O)CC4)cc(-c4cc(Cl)cc(Cl)c4)n3)cn2)CC1", "category": "False"}

Given the entry `O=C(O)CC1CCN(Cc2cc(Oc3cnc(N4CCN(CCO)CC4)nc3)nc(-c3cc(Cl)cc(Cl)c3)c2)CC1` , answer whether its inhibition in vivo at 10 mg/kg meets or surpasses 50%.
False

Given the entry CC(CC1CCN(Cc2cc(Oc3cnc(N4CCN(C)CC4)nc3)nc(-c3cc(Cl)cc(Cl)c3)c2)CC1)C(=O)O (stereo not drawn) , answer whether its inhibition in vivo at 10 mg/kg meets or surpasses 50%.
True

Given the entry `CS(=O)(=O)CCCN1CCN(c2ncc(Oc3cc(CN4CCC(CC(=O)O)CC4)cc(-c4cc(Cl)cc(Cl)c4)n3)cn2)CC1` , answer whether its inhibition in vivo at 10 mg/kg meets or surpasses 50%.
False

Given the entry `C[C@@H](O)CN1CCN(c2ncc(Oc3cc(CN4CCC(CC(=O)O)CC4)cc(-c4cc(Cl)cc(Cl)c4)n3)cn2)CC1` , answer whether its inhibition in vivo at 10 mg/kg meets or surpasses 50%.
False

Given the entry `O=C(O)CC1CCN(Cc2cc(Oc3cnc(N4CCNCC4)nc3)nc(-c3cc(Cl)cc(Cl)c3)c2)CC1` , answer whether its inhibition in vivo at 10 mg/kg meets or surpasses 50%.
False

Given the entry `CN1CCN(c2ncc(Oc3cc(CN4CCC(CC(=O)O)CC4)cc(-c4cc(Cl)cc(Cl)c4)n3)cn2)CC1` , answer whether its inhibition in vivo at 10 mg/kg meets or surpasses 50%.
False

Given the entry CC(=O)NCC1CCN(Cc2cc(Oc3cnc(N4CCN(CCC(C)C(=O)O)CC4)nc3)nc(-c3cc(Cl)cc(Cl)c3)c2)CC1 (stereo not drawn) , answer whether its inhibition in vivo at 10 mg/kg meets or surpasses 50%.
True
